type: biochemical, human; conditions: 0.77 mM peptide in factor B-depleted serum; standardized to water or DMSO; Table 6
REPORTED_PROPERTY: hemolysis

COMPOUND	hemolysis
CC[C@H](C)[C@H](N)C(=O)N[C@@H](C)C(=O)N[C@@H](CC(C)C)C(=O)N[C@H](C(=O)N[C@@H](CC(C)C)C(=O)N[C@@H](CCC(=O)O)C(=O)N1CCC[C@H]1C(=O)N[C@H](C(=O)N[C@@H](CS)C(=O)N[C@@H](CS)C(=O)N[C@@H](CCC(N)=O)C(=O)N[C@@H](CCC(=O)O)C(=O)N[C@@H](CCCNC(=N)N)C(=O)N[C@@H](C)C(=O)N[C@@H](C)C(=O)NCCOCCOCCOCCOCCOCCOCCOCCOCCOCCOCCOCCOCCC(=O)O)[C@@H](C)CC)[C@@H](C)CC [PA-dPEG12]	11.4%
CC[C@H](C)[C@H](N)C(=O)N[C@@H](C)C(=O)N[C@@H](CC(C)C)C(=O)N[C@H](C(=O)N[C@@H](CC(C)C)C(=O)N[C@@H](CCC(=O)O)C(=O)N1CCC[C@H]1C(=O)N[C@H](C(=O)N[C@@H](CS)C(=O)N[C@@H](CS)C(=O)N[C@@H](CCC(N)=O)C(=O)N[C@@H](CCC(=O)O)C(=O)N[C@@H](CCCNC(=N)N)C(=O)N[C@@H](C)C(=O)N[C@@H](C)C(=O)NCCOCCOCCOCCOCCOCCOCCOCCOCCOCCOCCOCCOCCOCCOCCOCCOCCC(=O)O)[C@@H](C)CC)[C@@H](C)CC [PA-dPEG16]	12%

Turning now to a further compound:
Reported hemolysis, compound CC[C@H](C)[C@H](N)C(=O)N[C@@H](C)C(=O)N[C@@H](CC(C)C)C(=O)N[C@H](C(=O)N[C@@H](CC(C)C)C(=O)N[C@@H](CCC(=O)O)C(=O)N1CCC[C@H]1C(=O)N[C@H](C(=O)N[C@@H](CS)C(=O)N[C@@H](CS)C(=O)N[C@@H](CCC(N)=O)C(=O)N[C@@H](CCC(=O)O)C(=O)N[C@@H](CCCNC(=N)N)C(=O)N[C@@H](C)C(=O)N[C@@H](C)C(=O)NCCOCCOCCOCCOCCOCCOCCC(=O)O)[C@@H](C)CC)[C@@H](C)CC [PA-dPEG06] : ____
44.8%
